Value source: ChEMBL document CHEMBL1926642

Kindly supply the reported TGI values for the records listed here.
Tested on: SF-539
Assay: Growth inhibition of human SF539 cells after 48 hrs by sulforhodamine B assay
Type: functional
Details: SF-539, 48 h, read-out: pTGI (converted)

In: Consider the molecule `COc1cc(/C=C/c2cc(O)c3c(c2)C[C@@H]2C(C)(C)[C@H](O)CC[C@@]2(C)O3)cc(O)c1C/C=C(\C)CCC=C(C)C` and give its measured TGI.
Out: 1.66 µM

In: Would you mind telling me what TGI value was observed for `COc1cc(/C=C/c2cc3c(c(SC)c2)O[C@]2(C)CC[C@@H](O)C(C)(C)[C@H]2C3)cc(O)c1C/C=C(\C)CCC=C(C)C` ?
Out: 41.7 µM

In: Suppose we examine the molecule `COCOc1cc(/C=C/c2cc(CO)c3c(c2)C[C@@H]2C(C)(C)[C@H](O)CC[C@@]2(C)O3)cc(OC)c1C/C=C(\C)CCC=C(C)C` ; what TGI value has been reported?
Out: 12.6 µM

In: Please give the measured TGI for this molecule: `COc1cc(/C=C/c2cc(F)c3c(c2)C[C@@H]2C(C)(C)[C@H](O)CC[C@@]2(C)O3)cc(O)c1C/C=C(\C)CCC=C(C)C`
Out: 14.1 µM

In: # get_value(readout='TGI', item= `COc1cc(/C=C/c2ccc3c(c2)C[C@@H]2C(C)(C)[C@H](O)CC[C@@]2(C)O3)cc(O)c1C/C=C(\C)CCC=C(C)C` )
Out: 17.4 µM

In: Fill in the blank: the reported TGI of `COCOc1cc(/C=C/c2cc(C=O)c3c(c2)C[C@@H]2C(C)(C)[C@H](O)CC[C@@]2(C)O3)cc(OC)c1C/C=C(\C)CCC=C(C)C` is ____.
Out: 12.9 µM

In: // query TGI value for entry `COc1cc(/C=C/c2cc3c(c(OC)c2)O[C@]2(C)CC[C@@H](O)C(C)(C)[C@H]2C3)cc(O)c1C/C=C(\C)CCC=C(C)C`
Out: 1.1 µM
